# SYSTEM: UniProtKB P06199
# Sequence (P06199 whole entry): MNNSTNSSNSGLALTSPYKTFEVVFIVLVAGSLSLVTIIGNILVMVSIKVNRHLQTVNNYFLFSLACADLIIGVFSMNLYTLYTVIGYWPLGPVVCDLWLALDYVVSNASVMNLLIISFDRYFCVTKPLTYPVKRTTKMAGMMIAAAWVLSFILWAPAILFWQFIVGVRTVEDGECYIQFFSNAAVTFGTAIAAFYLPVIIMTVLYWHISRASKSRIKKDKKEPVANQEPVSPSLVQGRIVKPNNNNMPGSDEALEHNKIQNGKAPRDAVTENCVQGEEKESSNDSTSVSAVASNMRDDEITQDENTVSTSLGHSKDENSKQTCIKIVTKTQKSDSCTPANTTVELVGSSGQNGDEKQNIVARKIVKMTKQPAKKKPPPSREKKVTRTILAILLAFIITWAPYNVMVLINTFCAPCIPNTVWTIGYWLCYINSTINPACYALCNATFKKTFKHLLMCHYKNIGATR
# ASSAY NOTES: Concentration for half maximal inhibition of [3H]NMS dissociation from muscarinic acetylcholine receptor M2 in porcine heart ventricles
Items are presented alongside their recorded pEC0.5.
MEASURE: pEC0.5

NC(=O)C[N+]12CC[C@@]34c5ccccc5N5[C@@H]6OCC=C7C[N+]8(CC(N)=O)CC[C@]9%10c%11ccccc%11N([C@@H]%11OCC=C(C1)[C@H](C[C@@H]32)[C@@H]%11[C@H]54)[C@H]9[C@H]6[C@H]7C[C@@H]%108 (stereo partly specified) ... 6.65
O=[N+]([O-])c1ccc(C[N+]23CC[C@@]45c6ccccc6N6[C@@H]7OCC=C8C[N+]9(Cc%10ccc([N+](=O)[O-])cc%10)CC[C@]%10%11c%12ccccc%12N([C@@H]%12OCC=C(C2)[C@H](C[C@@H]43)C%12[C@H]65)[C@H]%10[C@H]7[C@H]8C[C@@H]%119)cc1 (stereo partly specified) ... 6.47
N#CC[N+]12CC[C@@]34c5ccccc5N5[C@@H]6OCC=C7C[N+]8(CC#N)CC[C@]9%10c%11ccccc%11N([C@@H]%11OCC=C(C1)[C@H](C[C@@H]32)C%11[C@H]54)[C@H]9[C@H]6[C@H]7C[C@@H]%108 (stereo partly specified) ... 6.69
Fc1c(F)c(F)c(C[N@+]23CCC45c6ccccc6N6C7OCC=C8C[N@+]9(Cc%10c(F)c(F)c(F)c(F)c%10F)CCC%10%11c%12ccccc%12N(C%12OCC=C(C2)C(CC43)C%12C65)C%10C7C8CC%119)c(F)c1F (stereo partly specified) ... 7.27
C1=C2CN3CC[C@]45c6ccccc6N6[C@@H]7OCC=C8CN9CC[C@]%10%11c%12ccccc%12N([C@H](OC1)[C@@H]([C@H]64)[C@H]2C[C@H]35)[C@H]%10[C@H]7[C@H]8C[C@H]9%11 ... 6.36
O=C(C[N+]12CC[C@@]34c5ccccc5N5[C@@H]6OCC=C7C[N+]8(CC(=O)c9ccccc9)CC[C@]9%10c%11ccccc%11N([C@@H]%11OCC=C(C1)[C@H](C[C@@H]32)[C@@H]%11[C@H]54)[C@H]9[C@H]6[C@H]7C[C@@H]%108)c1ccccc1 (stereo partly specified) ... 5.49
